# cond: buffer; pH 7.4; 200.0 µM
endpointLabel: solubility kinetic (µg/mL)

> print(dat)
                                   compound       endpointlabel  valuequalifier  measuredvalue
1         Fc1ccccc1-n1cc(-c2ccccc2)[nH]c1=S  solubility kinetic               =            6.2
2  Cc1c2c(n3c(nc4ccccc43)c1C#N)N(CCCN(C)C)CC2  solubility kinetic               >             50
3              CCOc1ccccc1NC(=O)NCCN1CCCCC1  solubility kinetic               >           43.7
4  C=CCNC(=O)c1cccc(NS(=O)(=O)c2ccc(Cl)cc2)c1  solubility kinetic               =           49.9
5   O=C(CCl)Nc1cccc(S(=O)(=O)NC2=NCCCCC2)c1  solubility kinetic               >           51.6
6  O=C(NCC(O)c1ccc([N+](=O)[O-])cc1)C1CCCCC1 (stereo unspecified)  solubility kinetic               =           28.4
